assay: Drug concentrations in human ecto-cervical tissue explants (LC-MS/MS); conditions: human, ecto-cervical tissue explants, Cmax, Human ecto-cervical explants; Comb. gel, High [ ]: TFV 70 µM + MVC […]; 3 h exposure
MEASURE: Cmax (ng/g)
Only the number, expressed in ng/g, is required.

Consider `C[C@H](Cn1cnc2c(N)ncnc21)OCP(=O)(O)O` . Its measured Cmax is 16600

----------
assay: Drug concentrations in human ecto-cervical tissue explants (LC-MS/MS); conditions: human, ecto-cervical tissue explants, Cmax, Human ecto-cervical explants; Single gel, Low [ ]: TFV 7 µM or MVC […]; 3 h exposure
MEASURE: Cmax (ng/g)
Only the number, expressed in ng/g, is required.

Consider `C[C@H](Cn1cnc2c(N)ncnc21)OCP(=O)(O)O` . Its measured Cmax is 2030
